study_system: T1, serum resistance-associated protein (SRA) from Trypanosoma brucei rhodesiense, recombinant SRA (SEQ ID NO: … (Trypanosoma brucei rhodesiense, UniProt O96637 31-274))
T1 construct: also called SRA protein
T1 sequence: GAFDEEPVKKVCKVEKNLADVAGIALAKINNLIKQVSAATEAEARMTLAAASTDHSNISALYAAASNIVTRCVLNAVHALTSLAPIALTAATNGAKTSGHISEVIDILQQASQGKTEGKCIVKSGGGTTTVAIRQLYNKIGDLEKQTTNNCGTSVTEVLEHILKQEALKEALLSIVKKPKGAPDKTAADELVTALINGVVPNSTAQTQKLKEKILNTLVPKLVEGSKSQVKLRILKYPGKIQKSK
assay_procedure: SPR, mAb captured, 25C, assoc. pH 7.4, dissoc. pH 4.5
Overview of recorded t ½ for various binders
Your answer is read as min, so omit the unit and give the number.

// sample H1H10058P (antibody, V domains shown, Fully human antibody with human IgG1 Fc (prefix H1H)) VH: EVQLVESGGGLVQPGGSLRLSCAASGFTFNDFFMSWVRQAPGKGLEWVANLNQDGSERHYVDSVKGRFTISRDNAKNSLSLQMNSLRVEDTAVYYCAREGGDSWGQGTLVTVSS VL: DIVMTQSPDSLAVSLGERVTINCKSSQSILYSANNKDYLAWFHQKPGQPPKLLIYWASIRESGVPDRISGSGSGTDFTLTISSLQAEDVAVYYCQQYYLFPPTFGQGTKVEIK , its t ½ was 243

// sample H2aM10201N (antibody, V domains shown, Chimeric antibody, human variable domains and mouse constant domains (mouse Fc, prefix H2aM); also called H2M10201N) VH: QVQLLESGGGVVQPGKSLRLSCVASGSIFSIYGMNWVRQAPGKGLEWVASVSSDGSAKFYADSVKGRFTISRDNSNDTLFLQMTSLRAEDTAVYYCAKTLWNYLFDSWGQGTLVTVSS VL: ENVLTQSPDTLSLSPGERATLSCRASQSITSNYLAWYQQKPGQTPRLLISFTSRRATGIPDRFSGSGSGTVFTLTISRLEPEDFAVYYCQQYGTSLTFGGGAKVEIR , its t ½ was 0.7

Continue with the binder presented below.
// sample H1H10056P (antibody, V domains shown, Fully human antibody with human IgG1 Fc (prefix H1H)) VH: QVQLVESGGGVVQPGRSLRLSCSASGFTFSLYGMHWIRQAPGKGLEWVAVISYDGSNTYYGDSVKGRFTISRDNSKNTLYLQMNSLRTEDTAIYYCAKVYNWNYLFDYWGQGTLVTVSS VL: EIVLTQSPDTLSLSPGERATLSCRASQNVNNNFLAWYQQKPGQAPRLLIYGASSRATDIPERFSGSGSGTDFTLTISRLEPEDFAVYYCLHYVNSRTFGQGTKVEIK , its t ½ was 7

Source listed as patent US20150376269A1.
